Source listed as patent US11903935B2.

TESTED_SYSTEM: human SARM1 SAM-TIR (Homo sapiens (Human))
METHOD_NOTES: biochemical
CONDITION_SET: single point screening at 150 μM
READOUT_LABEL: NAD Consumption (%)

INSERT INTO results (compound, measured) VALUES
  ('COc1ccc2c(c1)nc([S+]([O-])Cc1ncc(C)c(OC)c1C)n2C (centres unmarked)', 'A (“A” indicating >75%)'),
  ('COc1ccc2[n-]c([S+]([O-])Cc3ncc(C)c(OC)c3C)nc2c1.[Na+] (centres unmarked) [I^A-13, sodium esomeprazole]', 'A (“A” indicating >75%)'),
  ('Cc1c(OCC(F)(F)F)ccnc1CS(=O)(=O)c1nc2ccccc2[nH]1', 'A (“A” indicating >75%)'),
  ('Cc1c(OCC(F)(F)F)ccnc1CSc1nc2ccccc2[nH]1 [I^A-9, lansoprazole sulfide]', 'A (“A” indicating >75%)');

---

TESTED_SYSTEM: human SARM1 SAM-TIR (Homo sapiens (Human))
METHOD_NOTES: biochemical
CONDITION_SET: single point screening at 150 μM
READOUT_LABEL: ADPR Production (%)

INSERT INTO measurements (compound, readout_label, measured) VALUES
  ('Cc1c(OCC(F)(F)F)ccnc1CS(=O)(=O)c1nc2ccccc2[nH]1', 'ADPR Production (%)', 'A (“A” indicating >75%)'),
  ('Cc1c(OCC(F)(F)F)ccnc1CSc1nc2ccccc2[nH]1 [I^A-9, lansoprazole sulfide]', 'ADPR Production (%)', 'A (“A” indicating >75%)'),
  ('COc1ccc2c(c1)nc([S+]([O-])Cc1ncc(C)c(OC)c1C)n2C (centres unmarked)', 'ADPR Production (%)', 'A (“A” indicating >75%)');

---

TESTED_SYSTEM: human SARM1 SAM-TIR (Homo sapiens (Human), UniProt Q6SZW1)
Sequence (Q6SZW1 other isoform, or with tags, fused parts or gaps): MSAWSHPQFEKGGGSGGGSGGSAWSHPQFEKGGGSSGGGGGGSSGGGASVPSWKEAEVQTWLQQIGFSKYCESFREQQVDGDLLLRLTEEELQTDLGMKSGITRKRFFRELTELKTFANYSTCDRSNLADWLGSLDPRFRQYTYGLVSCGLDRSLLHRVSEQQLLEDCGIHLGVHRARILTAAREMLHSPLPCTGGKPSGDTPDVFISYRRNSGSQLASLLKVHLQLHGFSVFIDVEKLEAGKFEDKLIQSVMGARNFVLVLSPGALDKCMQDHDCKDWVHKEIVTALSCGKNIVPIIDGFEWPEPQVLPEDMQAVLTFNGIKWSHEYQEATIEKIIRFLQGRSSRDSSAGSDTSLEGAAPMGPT
METHOD_NOTES: biochemical
CONDITION_SET: NAD consumption, 7 point curve 0-about 6 uM; read-out: IC50
pIC50: −log10 of the molar value.
READOUT_LABEL: pIC50

INSERT INTO assay_data (compound_structure, readout_label, measured) VALUES
  ('CN(C)c1n/c(=N/Cc2ccco2)ss1', 'pIC50', '~6.82');

// sample `CN(C)c1n/c(=N/c2cccc(Cl)c2)ss1` , its pIC50 was ~6.15

---

TESTED_SYSTEM: human SARM1 SAM-TIR (Homo sapiens (Human))
METHOD_NOTES: biochemical
CONDITION_SET: 10 point curve 0.01-250 uM; read-out: IC50 (μM, ADPR Production)
For each entry below, report its IC50 value.
Kindly format the answer as number then unit.

INSERT INTO measurements (compound, tested_system, measured) VALUES
  ('COc1ccc2[nH]c([S+]([O-])Cc3ncc(C)c(OC)c3C)nc2n1 (stereo not drawn)', 'human SARM1 SAM-TIR (Homo sapiens (Human))', '8.7 µM');

For each entry beneath this line, provide reported IC50.
1. Cc1c(OCC(F)(F)F)ccnc1C[S+]([O-])c1nc2ccccc2[nH]1 (stereo not drawn)
2. COCCCOc1ccnc(C[S+]([O-])c2nc3ccccc3[nH]2)c1C (stereo not drawn)

Completion:
["3.3 µM", "3.2 µM"]
